// data source = patent US20240116946A1

# Test system: SARS-CoV-2-NLuc
# testDescription: microbe, parasite or virus in culture
# Type: cell-based, SARS Coronavirus 2
# conditionLabel: Severe acute respiratory syndrome coronavirus, 48 h; read-out: MPro EC50
Mark each entry satisfied if its EC50 sits below 30 nM, and not satisfied for all others.

Cc1cncc(-n2c(=O)c3sc(-c4cc(Cl)ccc4C#N)cc3n(CCC#N)c2=O)c1 = satisfied
COc1cnc(C#N)c(-c2cc3c(s2)c(=O)n(-c2cncc(C)c2)c(=O)n3CCC#N)c1 = not satisfied
Cn1ncc2cncc(-n3c(=O)[nH]c4cc(-c5c(Cl)cc(Cl)c6c5CCO6)sc4c3=O)c21 = satisfied
Cc1c2c(-n3c(=O)c4sc(-c5cc(F)c(F)cc5Cl)cc4n(CCC#N)c3=O)cncc2nn1C = not satisfied
Cc1c(Cl)cncc1-n1c(=O)c2sc(-c3ccc(F)cc3C#N)cc2n(CCC#N)c1=O = not satisfied

In the following, a different compound is considered.
Please indicate whether the reported EC50 of `O=c1[nH]c2nc(-c3ccccc3)ccc2c(=O)n1-c1cncc2ccccc12` is strictly below 30 nM.
not satisfied

====

Entries and their log10(IC50)
# targetSystem: recombinant SARS-CoV-2 Main protease (Mpro) (Severe acute respiratory syndrome coronavirus 2 (2019-nCoV) (SARS-CoV-2), UniProt P0DTD1)
# testDescription: Cov Mpro Biochemical IC50 Assay
# conditionLabel: recombinant SARS-CoV-2 Mpro 7.5 nM, fluorogenic peptide substrate 40 μM; read-out: MPro IC50
Scale: decimal log of IC50, IC50 in nM.

Cc1cnnc(-n2c(=O)c3sc(-c4ccccc4Cl)cc3n(CCC#N)c2=O)c1 [Example 835] = 0.97

Item: COc1cc(-c2cc3c(s2)c(=O)n(-c2cncc4ccc(Cl)cc24)c(=O)n3CCC#N)c(Cl)cc1F [Example 946] | log10(IC50): 0.83

Item: COc1cc(-c2cc3[nH]c(=O)n(-c4cncc5ccn(C)c45)c(=O)c3s2)c(Cl)cc1F (single isomer, unassigned) [Example 958] | log10(IC50): 1.05

Item: COc1cc(-c2cc3c(s2)c(=O)n(-c2cncc(F)c2C)c(=O)n3CCC#N)c(Cl)cc1F [Example 1022] | log10(IC50): 0.86

Item: COc1cc(-c2cc3c(s2)c(=O)n(-c2cncc(C)c2)c(=O)n3CCC#N)c(Cl)cc1F [Example 981] | log10(IC50): 0.14

Item: Cn1ncc2cncc(-n3c(=O)c4sc(-c5ccc(Cl)cc5C#N)cc4n(CCC#N)c3=O)c21 [Example 824] | log10(IC50): 1.35

Item: COc1ccc(Cl)c(-c2cc3[nH]c(=O)n(-c4cncc5ncsc45)c(=O)c3s2)c1 [Example 486] | log10(IC50): 0.77

Item: COc1cc(-c2cc3c(s2)c(=O)n(-c2cncc(OC4CC4)c2)c(=O)n3CCC#N)c(Cl)cc1F [Example 953] | log10(IC50): 0.92

Item: COCCn1c(=O)n(-c2cncc3cnn(C)c23)c(=O)c2sc(-c3cc(OC)c(F)cc3Cl)cc21 [Example 1069] | log10(IC50): 1.59

Item: N#Cc1ncccc1-c1cc2[nH]c(=O)n(-c3cncc4ccccc34)c(=O)c2s1 [Example 538] | log10(IC50): 1.78

Item: COc1cc(-c2cc3c(s2)c(=O)n(-c2cncc4ccccc24)c(=O)n3CC(C)(C)C#N)c(Cl)cc1F [Example 698] | log10(IC50): 0.85

Item: Cn1cnc(Cn2c(=O)n(-c3cncc(C4CC4)c3)c(=O)c3sc(-c4ccccc4Cl)cc32)n1 [Example 621] | log10(IC50): 2.69

Item: Cn1ncc2cncc(-n3c(=O)c4sc(-c5ccccc5C#N)cc4n(CCC#N)c3=O)c21 [Example 782] | log10(IC50): 1.19

Item: COc1cc(-c2cc3[nH]c(=O)n(-c4cncc5nn(C)cc45)c(=O)c3s2)c(Cl)cc1F [Example 731] | log10(IC50): 0.70

Item: COc1cc(-c2cc3c(s2)c(=O)n(-c2cncc4cnn(C)c24)c(=O)n3CC#N)c(Cl)cc1F [Example 641] | log10(IC50): 0.34
